target: human GLP-1 receptor (human, UniProt P43220 24-463); assay: cell-based or functional assay
Numbered stars: 1 amine (or outer) side, 2 acyl side, 3 side chain; on linkers, the order of the positions; unused ones are H or OH. Square brackets hold non-standard residues; d marks the D form. Side chains are listed from the residue outwards. Ends that are not written are not given here. * marks the point of attachment. C20 diacid = O=C(O)CCCCCCCCCCCCCCCCCCC(=O)*; γGlu = O=C(O)[C@H](CCC(=O)[*:2])N[*:1]; AEEA = NCCOCCOCC(=O)O; Aib = CC(C)(N)C(=O)O
Labelling: hGLP1R cAMP Rel EC50 reported below 0.3 nM becomes Y; at or above becomes N.

Req: hGLP1R cAMP Rel EC50 under 0.3 nM? Item: YXXGTFTSDYSILLDKKAQXAFIEYLIEGGPSSGAPPPS (Aib2; γ-Glu3; K17((2-[2-(2-Amino-ethoxy)-ethoxy]-acetyl)2-(γ-Glu)-CO-(CH2)18-CO2H); Aib20; C-terminal NH2) [Example 91]
Resp: N

Req: hGLP1R cAMP Rel EC50 under 0.3 nM? Item: YXEGTFTSDYSILLDKKAQXAFIEYLIEGGPSSGAPPPS (αMePro2; K17((2-[2-(2-Amino-ethoxy)-ethoxy]-acetyl)2-(γ-Glu)-CO-(CH2)18-CO2H); Aib20; C-terminal NH2) [Example 87]
Resp: Y

Req: hGLP1R cAMP Rel EC50 under 0.3 nM? Item: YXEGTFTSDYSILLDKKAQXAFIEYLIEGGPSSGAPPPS (Aib2; K17((2-[2-(2-Amino-ethoxy)-ethoxy]-acetyl)-(γ-Glu)-(Trx)-CO-(CH2)18-CO2H); Aib20; C-terminal NH2) [Example 110]
Resp: Y

Req: hGLP1R cAMP Rel EC50 under 0.3 nM? Item: Y[Aib]EGTFTSDYSILLDKIAQ[Aib]AFK([AEEA-AEEA-γGlu-C20 diacid])EYLIEGGPSSGAPPPS-NH2 [Example 33]
Resp: N

Req: hGLP1R cAMP Rel EC50 under 0.3 nM? Item: YXEGTXTSDYSIXLDKKAQXAFIEYLIEGGPSSGAPPPS (not fully specified; Aib2; αMeF6; αMeF13 as printed (likely αMeL13); K17((2-[2-(2-Amino-ethoxy)-ethoxy]-acetyl)2-(γ-Glu)-CO-(CH2)18-CO2H); Aib20; C-terminal NH2) [Example 69]
Resp: Y

Req: hGLP1R cAMP Rel EC50 under 0.3 nM? Item: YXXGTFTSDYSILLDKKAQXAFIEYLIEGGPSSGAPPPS (Aib2; Aad3; K17((2-[2-(2-Amino-ethoxy)-ethoxy]-acetyl)2-(γ-Glu)-CO-(CH2)18-CO2H); Aib20; C-terminal NH2) [Example 89]
Resp: N

Req: hGLP1R cAMP Rel EC50 under 0.3 nM? Item: YXEGTFTSDYXILLDKKAQXAFIEYLIEGGPSSGAPPPS (Aib2; αMeS11; K17((2-[2-(2-Amino-ethoxy)-ethoxy]-acetyl)2-(γ-Glu)-CO-(CH2)18-CO2H); Aib20; C-terminal NH2) [Example 68]
Resp: Y

Req: hGLP1R cAMP Rel EC50 under 0.3 nM? Item: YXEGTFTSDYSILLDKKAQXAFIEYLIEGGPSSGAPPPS (Aib2; K17((2-[2-(2-Amino-ethoxy)-ethoxy]-acetyl)-(ϵK)-(γ-Glu)-CO-(CH2)18-CO2H); Aib20; C-terminal NH2) [Example 112]
Resp: Y

Req: hGLP1R cAMP Rel EC50 under 0.3 nM? Item: YXEGTXTSDYSILLDKIAQXKFIEYLIEGG (Aib2; αMeF6; Aib20; K21((2-[2-(2-Amino-ethoxy)-ethoxy]-acetyl)2-(γ-Glu)-CO-(CH2)18-CO2H); C-terminal NH2) [Example 94]
Resp: N

Req: hGLP1R cAMP Rel EC50 under 0.3 nM? Item: YXEGTFTSDYSIXLDEKAQXAFIEYLLEGGPSSGAPPPS (not fully specified; Aib2; αMeF13 as printed (likely αMeL13); K17((2-[2-(2-Amino-ethoxy)-ethoxy]-acetyl)2-(γ-Glu)-CO-(CH2)18-CO2H); Aib20; C-terminal NH2) [Example 66]
Resp: Y

Req: hGLP1R cAMP Rel EC50 under 0.3 nM? Item: YXEGTFTSDYSILLDKKAQXAXIEYLIEGGPSSGAPPPS (Aib2; K17((2-[2-(2-Amino-ethoxy)-ethoxy]-acetyl)2-(γ-Glu)-CO-(CH2)18-CO2H); Aib20; αMeF22; C-terminal NH2) [Example 67]
Resp: N

Req: hGLP1R cAMP Rel EC50 under 0.3 nM? Item: XXEGTFTSDYSILLDKKAQXAFIEYLIEGGPSSGAPPPS (D-Tyr1; Aib2; K17((2-[2-(2-Amino-ethoxy)-ethoxy]-acetyl)2-(γ-Glu)-CO-(CH2)18-CO2H); Aib20; C-terminal NH2) [Example 78]
Resp: N
